Hey, just so you know, these numbers are from paper PMC3745430.

Molecular target: STAT5b(136–703) (Homo sapiens)
Construct: 136 to 703 of human STAT5b; 6×His-tag (N); made in house; host or cells: E. coli BL-21 Star (DE3) pLysS co-transformed with pBirAcm
Assay: Single STAT5b-SH2 binding assay (AlphaScreen)
Settings: non-multiplexed single assay
Observation type: IC50 (µM)

input_smiles=O=C1C=CC(=NC2=C(Cl)C(=O)c3ccccc3C2=O)C=C1 value_observed=10

====

Biological target: STAT5b(136–703) (Homo sapiens)
Construct: 136 to 703 of human STAT5b; 6×His-tag (N); made in house; host or cells: E. coli BL-21 Star (DE3) pLysS co-transformed with pBirAcm
Sequence (P51692 136-703): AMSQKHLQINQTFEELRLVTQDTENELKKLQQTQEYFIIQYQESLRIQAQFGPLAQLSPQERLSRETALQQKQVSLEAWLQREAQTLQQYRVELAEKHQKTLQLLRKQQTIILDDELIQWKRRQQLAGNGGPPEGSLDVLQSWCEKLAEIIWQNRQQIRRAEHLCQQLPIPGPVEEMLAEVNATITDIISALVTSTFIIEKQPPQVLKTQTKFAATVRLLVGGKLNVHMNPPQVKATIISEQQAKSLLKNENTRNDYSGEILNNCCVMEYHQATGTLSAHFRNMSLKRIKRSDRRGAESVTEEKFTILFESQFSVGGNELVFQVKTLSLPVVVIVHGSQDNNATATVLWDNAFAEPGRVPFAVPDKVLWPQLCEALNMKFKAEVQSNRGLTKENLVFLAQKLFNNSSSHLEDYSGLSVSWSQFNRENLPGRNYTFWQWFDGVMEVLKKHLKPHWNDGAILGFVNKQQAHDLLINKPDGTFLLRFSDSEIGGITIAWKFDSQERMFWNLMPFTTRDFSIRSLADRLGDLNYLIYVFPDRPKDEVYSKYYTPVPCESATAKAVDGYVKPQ
Assay: Single STAT5b-SH2 binding assay (AlphaScreen)
Settings: single assay, non-labeled peptides (Figure 4B)
Square brackets hold non-standard residues; d marks the D form. pY = N[C@@H](Cc1ccc(OP(=O)(O)O)cc1)C(=O)O
Observation type: Inhibitory effect on STAT5b-SH2 binding

substance=Ac-GYLPQTV-NH2 value_observed="had no effect"
substance=Ac-GYLVLDKW-NH2 value_observed="had no effect"
substance="Ac-GpYLPQTV-NH2 (Ac-G[pY]LPQTV-NH2) [non-labeled phosphotyrosine peptide for STAT3]" value_observed="had no effect"

====

Here the recorded pIC50 is given for each entry.
Biological target: STAT5b(136–703) (Homo sapiens)
Construct: 136 to 703 of human STAT5b; 6×His-tag (N); made in house; host or cells: E. coli BL-21 Star (DE3) pLysS co-transformed with pBirAcm
Assay: Multiplexed Alpha assay, STAT5b-SH2 binding (AlphaScreen)
Details: multiplexed assay; read-out: IC50 for STAT5b-SH2 binding
pIC50: −log10 of the molar value.
Observation type: pIC50

molecule="O=C(NN=Cc1coc2ccccc2c1=O)c1cccnc1 [STAT5 inhibitor, reference compound]" value_observed=5.55
molecule="O=[N+]([O-])c1ccc2c(c1)S(=O)(=O)C=C2 [Stattic, reference compound]" value_observed=3.76

====

Target: STAT5b(136–703) (Homo sapiens, UniProt P51692)
Construct: 136 to 703 of human STAT5b; 6×His-tag (N); made in house; host or cells: E. coli BL-21 Star (DE3) pLysS co-transformed with pBirAcm
Sequence (P51692 136-703): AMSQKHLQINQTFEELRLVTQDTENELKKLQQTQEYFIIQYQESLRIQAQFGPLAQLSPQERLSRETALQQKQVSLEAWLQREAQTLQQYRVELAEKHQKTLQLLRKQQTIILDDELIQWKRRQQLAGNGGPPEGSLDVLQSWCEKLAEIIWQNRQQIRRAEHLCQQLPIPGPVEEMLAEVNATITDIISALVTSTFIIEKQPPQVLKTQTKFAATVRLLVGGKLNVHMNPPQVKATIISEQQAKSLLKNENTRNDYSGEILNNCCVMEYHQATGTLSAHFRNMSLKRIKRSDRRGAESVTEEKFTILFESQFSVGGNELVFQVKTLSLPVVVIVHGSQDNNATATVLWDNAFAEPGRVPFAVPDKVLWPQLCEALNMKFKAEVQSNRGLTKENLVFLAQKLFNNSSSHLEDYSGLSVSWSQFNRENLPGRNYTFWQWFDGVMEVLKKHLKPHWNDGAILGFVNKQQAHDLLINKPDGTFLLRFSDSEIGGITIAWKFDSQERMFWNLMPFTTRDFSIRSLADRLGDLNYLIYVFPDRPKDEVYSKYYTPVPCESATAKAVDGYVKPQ
Assay: Multiplexed Alpha assay, STAT5b-SH2 binding (AlphaScreen)
Details: multiplexed binding assay; mean and SEM, three independent experiments; read-out: IC50 STAT5b-SH2 binding (STAT5b)
Observation type: IC50

input_smiles=O=C1C(Cl)=C(Cl)C(=O)c2ccccc21 value_observed="20 µM"
input_smiles=O=C1C(Cl)=C(N2CCOCC2)C(=O)c2ccc(S(=O)(=O)N3CCOCC3)cc21 value_observed="13 µM"
input_smiles=O=C1C=CC(=NC2=C(Cl)C(=O)c3ccccc3C2=O)C=C1 value_observed="11 µM"
input_smiles=CCOc1ccccc1NC1=C(Cl)C(=O)c2ccccc2C1=O value_observed="1.4 µM"
input_smiles=CC(=O)NC1=C(Cl)C(=O)c2ccccc2C1=O value_observed="> 30 µM"
input_smiles=CN1CCN(C2=C(Cl)C(=O)c3ccccc3C2=O)CC1 value_observed="> 30 µM"

====

Molecular target: STAT3(136–705) (Homo sapiens)
Construct: amino acids 136 to 705 of human STAT3 and 136 to 703 of human STAT5b; 6×His-tag (N); made in house; host or cells: E. coli BL-21 Star (DE3) pLysS co-transformed with pBirAcm
Sequence (P40763 136-705): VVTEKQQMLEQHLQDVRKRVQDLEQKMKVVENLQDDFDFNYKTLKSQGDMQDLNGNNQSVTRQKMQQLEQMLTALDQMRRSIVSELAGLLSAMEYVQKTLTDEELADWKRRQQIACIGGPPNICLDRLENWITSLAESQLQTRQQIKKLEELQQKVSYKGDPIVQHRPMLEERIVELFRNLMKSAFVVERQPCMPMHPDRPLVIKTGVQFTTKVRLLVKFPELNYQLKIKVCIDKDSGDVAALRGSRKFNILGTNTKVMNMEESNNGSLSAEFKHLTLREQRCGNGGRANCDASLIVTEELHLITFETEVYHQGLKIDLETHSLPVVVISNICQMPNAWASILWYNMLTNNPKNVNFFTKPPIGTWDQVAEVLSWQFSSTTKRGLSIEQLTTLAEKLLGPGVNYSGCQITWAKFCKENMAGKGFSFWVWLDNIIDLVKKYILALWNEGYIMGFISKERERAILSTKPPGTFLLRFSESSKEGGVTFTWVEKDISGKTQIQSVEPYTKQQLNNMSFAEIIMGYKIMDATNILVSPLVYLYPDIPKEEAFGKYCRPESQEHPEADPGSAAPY
Assay: Single STAT3-SH2 binding assay (AlphaLISA)
Conditions: single assay, non-labeled peptides (Figure 4A)
Observation type: Inhibitory effect on STAT3-SH2 binding

substance=Ac-GYLPQTV-NH2 target_or_test_system="STAT3(136–705) (Homo sapiens)" observation_type="Inhibitory effect on STAT3-SH2 binding" value_observed="had no effect"
substance=Ac-GpYLVLDKW-NH2 target_or_test_system="STAT3(136–705) (Homo sapiens)" observation_type="Inhibitory effect on STAT3-SH2 binding" value_observed="had no effect"
substance=Ac-GYLVLDKW-NH2 target_or_test_system="STAT3(136–705) (Homo sapiens)" observation_type="Inhibitory effect on STAT3-SH2 binding" value_observed="had no effect"

====

Target: STAT3(136–705) (Homo sapiens)
Construct: amino acids 136 to 705 of human STAT3 and 136 to 703 of human STAT5b; 6×His-tag (N); made in house; host or cells: E. coli BL-21 Star (DE3) pLysS co-transformed with pBirAcm
Assay: Multiplexed Alpha assay, STAT3-SH2 binding (AlphaLISA)
Conditions: multiplexed binding assay; mean and SEM, three independent experiments; read-out: IC50 STAT3-SH2 binding (STAT3)
pIC50: −log10 of the molar value.
Observation type: pIC50

input_smiles=CN1CCN(C2=C(Cl)C(=O)c3ccccc3C2=O)CC1 target_or_test_system="STAT3(136–705) (Homo sapiens)" observation_type=pIC50 censoring_sign=< value_observed=4.52
input_smiles=O=C1C(Cl)=C(N2CCOCC2)C(=O)c2ccc(S(=O)(=O)N3CCOCC3)cc21 target_or_test_system="STAT3(136–705) (Homo sapiens)" observation_type=pIC50 censoring_sign== value_observed=5.42
input_smiles=O=C1C=CC(=NC2=C(Cl)C(=O)c3ccccc3C2=O)C=C1 target_or_test_system="STAT3(136–705) (Homo sapiens)" observation_type=pIC50 censoring_sign== value_observed=5.30
input_smiles=O=C1C(Cl)=C(Cl)C(=O)c2ccccc21 target_or_test_system="STAT3(136–705) (Homo sapiens)" observation_type=pIC50 censoring_sign== value_observed=4.92
input_smiles=CC(=O)NC1=C(Cl)C(=O)c2ccccc2C1=O target_or_test_system="STAT3(136–705) (Homo sapiens)" observation_type=pIC50 censoring_sign== value_observed=4.64
input_smiles=CCOc1ccccc1NC1=C(Cl)C(=O)c2ccccc2C1=O target_or_test_system="STAT3(136–705) (Homo sapiens)" observation_type=pIC50 censoring_sign== value_observed=5.82

====

Target: STAT3(136–705) (Homo sapiens)
Construct: amino acids 136 to 705 of human STAT3 and 136 to 703 of human STAT5b; 6×His-tag (N); made in house; host or cells: E. coli BL-21 Star (DE3) pLysS co-transformed with pBirAcm
Experiment: Multiplexed Alpha assay, STAT3-SH2 binding (AlphaLISA)
Conditions: multiplexed assay; read-out: IC50 for STAT3-SH2 binding
Observation type: IC50 (µM)

compound="O=C(NN=Cc1coc2ccccc2c1=O)c1cccnc1 [STAT5 inhibitor, reference compound]" target_or_test_system="STAT3(136–705) (Homo sapiens)" value_observed=161
compound="O=[N+]([O-])c1ccc2c(c1)S(=O)(=O)C=C2 [Stattic, reference compound]" target_or_test_system="STAT3(136–705) (Homo sapiens)" value_observed=50
